- experiment notes: Solubility detection of CAK01-CAK07
- Assay type: physicochemical
quantity name: solubility (mg/100 g)
Give the value in mg/100 g but do not write mg/100 g after it.

Any idea what solubility was measured for `COc1cc(/C=C2\CN(C(C)C)C/C(=C\c3cc(Cl)c(O)c(OC)c3)C2=O)cc(Cl)c1O` ?
0.14

Any idea what solubility was measured for `CCN1C/C(=C\c2cc(Cl)c(O)c(Cl)c2)C(=O)/C(=C/c2cc(Cl)c(O)c(Cl)c2)C1` ?
0.08

Any idea what solubility was measured for `COc1cc(/C=C2\CNC/C(=C\c3cc(Cl)c(O)c(OC)c3)C2=O)cc(Cl)c1O` ?
171.77

Any idea what solubility was measured for `CN1C/C(=C\c2cc(Cl)c(O)c(Cl)c2)C(=O)/C(=C/c2cc(Cl)c(O)c(Cl)c2)C1` ?
0.09

Any idea what solubility was measured for `COc1cc(/C=C2\CN(C)C/C(=C\c3cc(Cl)c(O)c(OC)c3)C2=O)cc(Cl)c1O` ?
34.77

Any idea what solubility was measured for `CC(C)N1C/C(=C\c2cc(Cl)c(O)c(Cl)c2)C(=O)/C(=C/c2cc(Cl)c(O)c(Cl)c2)C1` ?
0.04

Any idea what solubility was measured for `O=C1/C(=C/c2cc(Cl)c(O)c(Cl)c2)CNC/C1=C\c1cc(Cl)c(O)c(Cl)c1` ?
0.17

---

- System: PC12 cells
- experiment notes: MTT toxicity (safety evaluation) on PC12 nerve cells
- Format: cell-based
- experimental conditions: PC12, 30 μM, 48 h
For each entry below, report its Relative growth rate (%) 48 h value.
Give the value in % but do not write % after it.

Any idea what Relative growth rate (%) 48 h was measured for COc1cc(/C=C2\CN(C)C/C(=C\c3cc(Cl)c(O)c(OC)c3)C2=O)cc(Cl)c1O [CAK07] ?
30.46

Any idea what Relative growth rate (%) 48 h was measured for COc1cc(/C=C2\CNC/C(=C\c3cc(Cl)c(O)c(OC)c3)C2=O)cc(Cl)c1O [CAK06] ?
93.60

Any idea what Relative growth rate (%) 48 h was measured for O=C1/C(=C/c2cc(Cl)c(O)c(Cl)c2)CNC/C1=C\c1cc(Cl)c(O)c(Cl)c1 [CAK01] ?
100.73

Any idea what Relative growth rate (%) 48 h was measured for CCN1C/C(=C\c2cc(Cl)c(O)c(Cl)c2)C(=O)/C(=C/c2cc(Cl)c(O)c(Cl)c2)C1 [CAK03] ?
95.25

Any idea what Relative growth rate (%) 48 h was measured for COc1cc(/C=C2\CN(C(C)C)C/C(=C\c3cc(Cl)c(O)c(OC)c3)C2=O)cc(Cl)c1O [CAK05] ?
15.43

Any idea what Relative growth rate (%) 48 h was measured for CC(C)N1C/C(=C\c2cc(Cl)c(O)c(Cl)c2)C(=O)/C(=C/c2cc(Cl)c(O)c(Cl)c2)C1 [CAK04] ?
98.02

Any idea what Relative growth rate (%) 48 h was measured for CN1C/C(=C\c2cc(Cl)c(O)c(Cl)c2)C(=O)/C(=C/c2cc(Cl)c(O)c(Cl)c2)C1 [CAK02] ?
97.59

---

- Test system: PC12 cells
- experiment notes: MTT toxicity (safety evaluation) on PC12 nerve cells
- Assay type: cell-based
- experimental conditions: PC12, 60 μM, 48 h
quantity name: Rank (cytotoxicity standard) 48 h
API doc: respond with a numeric literal and nothing else, no unit.

Any idea what Rank (cytotoxicity standard) 48 h was measured for `O=C1/C(=C/c2cc(Cl)c(O)c(Cl)c2)CNC/C1=C\c1cc(Cl)c(O)c(Cl)c1` ?
1

Any idea what Rank (cytotoxicity standard) 48 h was measured for `COc1cc(/C=C2\CNC/C(=C\c3cc(Cl)c(O)c(OC)c3)C2=O)cc(Cl)c1O` ?
0

Any idea what Rank (cytotoxicity standard) 48 h was measured for `CCN1C/C(=C\c2cc(Cl)c(O)c(Cl)c2)C(=O)/C(=C/c2cc(Cl)c(O)c(Cl)c2)C1` ?
3

Any idea what Rank (cytotoxicity standard) 48 h was measured for `CC(C)N1C/C(=C\c2cc(Cl)c(O)c(Cl)c2)C(=O)/C(=C/c2cc(Cl)c(O)c(Cl)c2)C1` ?
0

Any idea what Rank (cytotoxicity standard) 48 h was measured for `COc1cc(/C=C2\CN(C)C/C(=C\c3cc(Cl)c(O)c(OC)c3)C2=O)cc(Cl)c1O` ?
4

Any idea what Rank (cytotoxicity standard) 48 h was measured for `CN1C/C(=C\c2cc(Cl)c(O)c(Cl)c2)C(=O)/C(=C/c2cc(Cl)c(O)c(Cl)c2)C1` ?
1

Any idea what Rank (cytotoxicity standard) 48 h was measured for `COc1cc(/C=C2\CN(C(C)C)C/C(=C\c3cc(Cl)c(O)c(OC)c3)C2=O)cc(Cl)c1O` ?
4
